Give measured GI50 for each item. Keep answers brief.
- tested.on: Ba/F3 EGFR-Del19/T790M/C797S (Homo sapiens, UniProt P00533, T790M/C797S, cells depend on it, form not given)
- Sequence (P00533 with tags, fused parts or gaps DEL746-750/T790M/C797S, form open): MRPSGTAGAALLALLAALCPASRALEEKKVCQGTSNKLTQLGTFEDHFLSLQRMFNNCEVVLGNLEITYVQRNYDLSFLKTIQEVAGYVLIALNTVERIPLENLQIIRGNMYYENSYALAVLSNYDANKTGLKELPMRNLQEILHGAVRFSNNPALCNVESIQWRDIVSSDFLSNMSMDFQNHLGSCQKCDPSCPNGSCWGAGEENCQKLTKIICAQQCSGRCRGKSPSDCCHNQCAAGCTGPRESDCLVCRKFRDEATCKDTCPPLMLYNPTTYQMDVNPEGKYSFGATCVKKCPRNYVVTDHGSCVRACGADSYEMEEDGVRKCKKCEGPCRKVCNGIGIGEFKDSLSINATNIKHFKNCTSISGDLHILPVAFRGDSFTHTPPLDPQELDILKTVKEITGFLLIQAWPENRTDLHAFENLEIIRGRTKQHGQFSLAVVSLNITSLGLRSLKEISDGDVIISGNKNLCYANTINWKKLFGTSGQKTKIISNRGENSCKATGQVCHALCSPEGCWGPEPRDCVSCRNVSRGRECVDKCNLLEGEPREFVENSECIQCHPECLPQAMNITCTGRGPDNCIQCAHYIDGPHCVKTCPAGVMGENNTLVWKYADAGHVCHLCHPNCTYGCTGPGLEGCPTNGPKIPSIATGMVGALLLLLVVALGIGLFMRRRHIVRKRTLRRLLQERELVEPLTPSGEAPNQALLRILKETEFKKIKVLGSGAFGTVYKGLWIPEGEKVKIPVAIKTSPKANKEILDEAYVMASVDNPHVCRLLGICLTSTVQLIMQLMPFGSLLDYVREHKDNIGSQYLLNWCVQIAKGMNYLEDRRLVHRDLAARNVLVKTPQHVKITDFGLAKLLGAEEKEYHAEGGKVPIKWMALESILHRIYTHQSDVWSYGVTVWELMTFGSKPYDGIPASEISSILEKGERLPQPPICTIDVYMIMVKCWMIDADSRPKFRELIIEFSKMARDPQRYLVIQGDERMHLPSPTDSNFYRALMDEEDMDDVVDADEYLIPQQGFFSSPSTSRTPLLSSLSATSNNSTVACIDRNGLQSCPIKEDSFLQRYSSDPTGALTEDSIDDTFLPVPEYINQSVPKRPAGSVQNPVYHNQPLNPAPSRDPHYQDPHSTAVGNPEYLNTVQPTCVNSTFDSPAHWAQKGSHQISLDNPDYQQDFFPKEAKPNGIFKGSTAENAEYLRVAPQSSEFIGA
- assay.info: Ba/F3 viability assay (CellTiter-Glo), DTC
- Assay type: cell-based
- test.settings: anti-proliferation, read-out: BaF3 DTC IC50

Request: Provide measured GI50 value, entry: C[C@H]1CCOc2c(cnn2C)-c2nccc(n2)Nc2cc3c(cn2)c(-c2cc(CN(C)C)ccn2)nn31
Result: < 10 nM

Request: Provide measured GI50 value, entry: CCn1cc(-c2nn3c4cc(ncc24)Nc2ccnc(n2)-c2cnn(C)c2OCC[C@@H]3C)cc1CN1CCN(C)CC1
Result: < 10 nM

Request: Provide measured GI50 value, entry: CC(C)n1cc(-c2nn3c4cc(ncc24)Nc2ccnc(n2)-c2cnn(C)c2OCC[C@@H]3C)cc1CN1CCOCC1
Result: < 10 nM

Request: Provide measured GI50 value, entry: C[C@H]1CCOc2c(cnn2C)-c2nccc(n2)Nc2cc3c(cn2)c(-c2ccnc(N4CCN(C)CC4)c2)nn31
Result: 10 to 100 nM

Request: Provide measured GI50 value, entry: CC1CCCCOc2c(cnn2C)-c2nccc(n2)Nc2cc3c(cn2)c(N2CCC2)nn31 (centres unmarked)
Result: 10 to 100 nM
